target: T1, recombinant human CD40 monomer (human, UniProt P25942 21-193); assay: BLI (Octet RED); antibody supernatant captured on protein A sensors, huCD40-monomer in solution
T1 construct: also called huCD40-monomer; soluble human CD40
T1 sequence (P25942 21-193 limits assumed): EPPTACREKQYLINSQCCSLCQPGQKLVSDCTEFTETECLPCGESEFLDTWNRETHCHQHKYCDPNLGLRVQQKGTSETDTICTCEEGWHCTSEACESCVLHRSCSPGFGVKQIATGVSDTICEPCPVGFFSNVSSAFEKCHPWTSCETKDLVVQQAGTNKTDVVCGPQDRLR
readout: Kd (nM)
Note: unit nM is implicit; provide only the numeric part.

Lookup result for 5G7 (parental) (antibody, V domains shown, Mouse variable domains; also called 1802.3583.5G7.F12.G3; mAb 5G7) VH: EVLLQQSGPELVKPGASVKIPCKASGYKFTDYNMDWVKQSHGKSLEWIGDINPKNGGTIYNLKFKGKATLTVDMSSSTAYMELRSLTSEDTAVYYCVRRMDYWGQGTSVTVSS VL: DIQMTQTTSSLSASLGDRVTISCRASQDISNYLNWYQQKPDGTVKLLIYYISRLHSGVPSRFRGSGSGTDFSLTISNLEQEDIATYFCQQGNTLPYTFGGGTNLEIK ; measured Kd: 89

Lookup result for 8E8-67 (antibody, human IgG1, kappa, V domains shown, Humanized; IgG1f) VH: QVQFVQSGAEVKKPGSSVKVSCKASGYTFTSYWMQWVRQAPGQGLEWMGTIYPGDGDSRYNQKFKGKALLTADKSTSTAYMELSSLRSEDTAVYYCARFSLYEGYPYYFDYWGQGTTVTVSS VL: DIVMTQSPLSLPVTPGEPASISCRSSQSLVHRNANTYLHWYLQKPGQSPQLLIYRVSNRFSGVPDRFSGSGSGTDFTLKISRVEAEDVGVYYCSQSTHFPYTFGGGTKVEIKR ; measured Kd: 28

Lookup result for 19G3-22 (antibody, human IgG1, kappa, V domains shown, Humanized; IgG1f) VH: EVQLVESGGGLVKPGGSLRLSCAASGFTFSSYAMSWVRQAPGKGLEWVSEISGGGSYTYYPDTVTGRFTISRDNAKNSLYLQMNSLRAEDTAVYYCASRAYWGQGTLVTVSS VL: DIVMTQTPLSLPVTPGEPASISCRSSQSIVHSQGNTYFEWYLQKPGQSPQLLIYKVSNRFSGVPDRFSGSGSGTDFTLKISRVEAEDVGVYYCFQGSHVPYTFGGGTKVEIKR ; measured Kd: 99

Lookup result for 8E8-56 (antibody, human IgG1, kappa, V domains shown, Humanized; IgG1f) VH: QVQFVQSGAEVKKPGSSVKVSCKASGYTFTSYWMQWVRQAPGQGLEWMGTIYPGDGDSRYNQKFKGKALLTADKSTSTAYMELSSLRSEDTAVYYCARFSLYDGYPYYFDYWGQGTTVTVSS VL: DIVMTQSPLSLPVTPGEPASISCRSSQSLVHRNGNTYLHWYLQKPGQSPQLLIYRVSNRFSGVPDRFSGSGSGTDFTLKISRVEAEDVGVYYCSQSTHFPYTFGGGTKVEIKR ; measured Kd: 82

Lookup result for 8E8-66 (antibody, human IgG1, kappa, V domains shown) VH: QVQFVQSGAEVKKPGSSVKVSCKASGYTFTSYWMQWVRQAPGQGLEWMGTIYPGDGDSRYNQKFKGKALLTADKSTSTAYMELSSLRSEDTAVYYCARFSLYDGYPYYFDYWGQGTTVTVSS VL: DIVMTQSPLSLPVTPGEPASISCRSSQSLVHRNANTYLHWYLQKPGQSPQLLIYRVSNRFSGVPDRFSGSGSGTDFTLKISRVEAEDVGVYYCSQSTHFPYTFGGGTKVEIKR ; measured Kd: 82

All values here come from patent US20180142030A1.
